Taken from patent US20240124585A1.

- System under test: T1, human CD3 on T-cell lines (CD3-expressing Jurkat cells; HUT78 cells) (human, UniProt P07766 23-207)
- T1 construct: On cells it stands in the CD3/TCR complex
- T1 sequence (P07766 23-207 limits assumed): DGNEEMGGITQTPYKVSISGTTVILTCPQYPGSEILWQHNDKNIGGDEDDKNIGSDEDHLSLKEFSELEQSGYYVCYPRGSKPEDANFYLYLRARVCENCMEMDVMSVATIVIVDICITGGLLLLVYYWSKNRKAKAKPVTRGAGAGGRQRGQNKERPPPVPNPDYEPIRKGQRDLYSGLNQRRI
- Assay protocol: flow cytometry, HUT78 cells
pKd: −log10 of the molar value.
// label = yes if pKd is not less than 7, otherwise no

### Prompt Textbook exercise: given the entry SRP 2037-B10 Y55D/LC6 (antibody, human IgG1, kappa, V domains shown, human IgG1, kappa) VH: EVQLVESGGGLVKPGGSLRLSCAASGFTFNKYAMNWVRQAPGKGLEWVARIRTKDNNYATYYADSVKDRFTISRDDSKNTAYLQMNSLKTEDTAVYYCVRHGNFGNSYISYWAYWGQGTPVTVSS VL: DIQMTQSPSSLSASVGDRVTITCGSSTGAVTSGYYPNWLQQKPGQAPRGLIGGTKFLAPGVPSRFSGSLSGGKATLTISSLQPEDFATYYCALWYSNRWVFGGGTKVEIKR , state whether its pKd is greater than or equal to 7.
### Response yes

### Prompt Textbook exercise: given the entry SRP 2037-B10 S107D/R97D (antibody, human IgG1, lambda, V domains shown, human IgG1, lambda) VH: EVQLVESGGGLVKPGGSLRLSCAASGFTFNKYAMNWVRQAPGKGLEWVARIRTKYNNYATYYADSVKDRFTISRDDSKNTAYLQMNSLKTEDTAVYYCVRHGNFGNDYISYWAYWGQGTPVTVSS VL: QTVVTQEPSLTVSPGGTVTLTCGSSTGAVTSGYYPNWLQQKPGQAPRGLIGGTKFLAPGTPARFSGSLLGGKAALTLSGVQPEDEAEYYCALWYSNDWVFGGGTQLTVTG , state whether its pKd is greater than or equal to 7.
### Response yes

### Prompt Textbook exercise: given the entry SRP 2037-B10 Y61D/LC5 (antibody, human IgG1, kappa, V domains shown, human IgG1, kappa) VH: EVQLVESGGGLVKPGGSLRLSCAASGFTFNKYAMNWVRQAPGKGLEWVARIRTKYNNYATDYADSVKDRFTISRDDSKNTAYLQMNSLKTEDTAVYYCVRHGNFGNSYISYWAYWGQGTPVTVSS VL: DTQVTQSPSLSASVGDRVTITCGSSTGAVTSGYYPNWLQQKPGQAPRGLIGGTKFLAPGVPSRFSGSGSGTDFTLTISSLQPEDFATYYCALWYSNRWVFGGGTKVEIKR , state whether its pKd is greater than or equal to 7.
### Response no

### Prompt Textbook exercise: given the entry SRP 2037-B10 S107D/LC6 (antibody, human IgG1, kappa, V domains shown, human IgG1, kappa; also called 2037-B10 IgG S107D Lc6) VH: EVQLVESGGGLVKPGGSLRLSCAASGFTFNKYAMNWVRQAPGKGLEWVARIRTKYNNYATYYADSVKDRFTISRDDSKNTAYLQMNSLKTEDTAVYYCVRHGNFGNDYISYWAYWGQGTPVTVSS VL: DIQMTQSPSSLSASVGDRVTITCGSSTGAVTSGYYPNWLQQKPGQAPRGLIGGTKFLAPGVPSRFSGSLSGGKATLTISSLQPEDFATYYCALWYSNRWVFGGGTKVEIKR , state whether its pKd is greater than or equal to 7.
### Response yes
